Attribution: PubChem BioAssay (NCI)

Catalogue of TGI values
Tested on: KM12 colon
Test details: NCI tumour cell line growth inhibition, 48 h

CSc1ccc2c(cc1=O)[C@@H](NC(=O)c1ccc(Cl)cc1)CCc1cc(O)c(O)c(O)c1-2    > 100 µM

Q: // lookup TGI for CN(C)Cc1cc(C(=O)/C=C/c2ccc(Cl)c(Cl)c2)cc(CN(C)C)c1O
Ans: 4.73 µM

Q: // lookup TGI for COc1ccc2c(C)c(Oc3c(Cl)c(Cl)c(O)c(C#N)c3C#N)oc2c1
Ans: > 100 µM

Q: // lookup TGI for CSc1nn(C)cc2ncnc1-2
Ans: > 100 µM

Q: // lookup TGI for Oc1ccc2ccccc2c1N=Nc1cc(Cl)ccc1Cl
Ans: > 50 µM

Q: // lookup TGI for O=c1cnnc(N/N=C/c2ccccc2O)[nH]1
Ans: > 100 µM

Q: // lookup TGI for CC(=O)c1cc2c(s1)C(=O)c1sccc1C2=O
Ans: 0.332 µM

* * *

Test system: MDA-N
Test details: NCI tumour cell line growth inhibition, 48 h
Catalogue of log10 of TGI values
Base-10 log of TGI, unit µM.

Example entries and their recorded answers appear below.
O=C(NCCCNCCN1C(=O)c2cccc3cc([N+](=O)[O-])cc(c23)C1=O)c1cc(-c2ccccc2)nc2ccccc12    0.46
COc1cccc(-c2cc(=O)c3cc(N4CCOCC4)ccc3[nH]2)c1    -1.56
C=C1C[C@@H]2O[C@H]3[C@H]4[C@@H](C[C@@H](C)[C@@H](OC(C)=O)[C@H]42)[C@@H](C)CO[C@@]3(C)[C@H](OC(=O)CCCCCCC)C[C@H]1O    1.48
COc1c(/C=C/C=O)cc2c(c1OC)OCO2    1.97
C/C(=N\OCC(O)CNCCSCc1ccccc1)c1ccccc1Cl (centres undefined)    1.57

Q: // lookup log10 of TGI for C/C(N)=C/C(=O)c1[nH]c(C(=O)O)cc1C1CCN(Cc2ccccc2)C1=O (centres undefined)
Ans: 1.84

Q: // lookup log10 of TGI for Cn1c2c(c3ccccc31)CCN(CCCCN1CCN(c3ccccc3)CC1)C2=O
Ans: 1.95

Q: // lookup log10 of TGI for CC(C)(C)C1CCC2c3c([nH]c4ccccc34)C3C(=O)N(c4ccccc4[N+](=O)[O-])C(=O)C3C2C1 (centres undefined)
Ans: 1.64

* * *

Tested on: UACC-257 melanoma
Test details: NCI tumour cell line growth inhibition, 48 h
Catalogue of TGI values

Example entries and their recorded answers appear below.
Cn1cc(-c2nc(-c3c[nH]c4ncccc34)cs2)c2ccccc21    > 100 µM
CC1=C(C)C(=O)O[C@@H]([C@](C)(O)[C@]2(O)CC[C@@]3(O)[C@@H]4C[C@H](O)[C@]5(O)[C@@H](O)C=CC(=O)[C@]5(C)[C@H]4CC[C@]23C)C1    > 100 µM

Consider the record given below.
Q: // lookup TGI for CN(C)C=Nc1c2ccccc2nc2ccccc12
Ans: 9.3 µM

* * *

Catalogue of TGI values
System: HOP-62 NSCLC
Test details: NCI tumour cell line growth inhibition, 48 h

C/C(=N\OCC(O)CNCCSCc1ccccc1)c1ccccc1Cl (stereo unspecified)    38.8 µM
O=C1/C(=C/c2ccc(O)cc2)CCc2ccc([N+](=O)[O-])cc21    > 100 µM

Q: // lookup TGI for COc1cc(N2C(=O)[C@H](c3ccccc3)C2c2ccc(SC)cc2)cc(OC)c1OC (stereo partly specified)
Ans: > 100 µM

Q: // lookup TGI for CC(=O)OCC1OC(c2c(OC(C)=O)cc(C)c3c(=O)cc(/C(C(C)=O)=C(\C)O)oc23)C(OC(C)=O)C(OC(C)=O)C1OC(C)=O (stereo unspecified)
Ans: > 100 µM

Q: // lookup TGI for O=C(Cc1ccccc1)NN1C(=O)/C(=C\c2cccc([N+](=O)[O-])c2)SC1=Nc1ccccc1
Ans: > 100 µM

Q: // lookup TGI for C=CC(=O)N1C[C@@H]2CCOc3c(Cl)c(-c4c(O)cccc4F)c(F)c4ncnc(c34)N2C[C@H]1C
Ans: 25.5 µM

Q: // lookup TGI for CC(=O)c1cc2c(s1)C(=O)c1sccc1C2=O
Ans: 0.0854 µM

Q: // lookup TGI for CCOc1cn(C2OC(CO)C(O)C2O)c(=O)[nH]c1=O (stereo unspecified)
Ans: > 100 µM

Q: // lookup TGI for CNC1c2ccccc2C(=O)c2cc3c(cc21)OCCOCCOCCOCCO3 (stereo unspecified)
Ans: > 100 µM

Q: // lookup TGI for c1cc2nnsc2s1
Ans: > 100 µM

Q: // lookup TGI for OCC[N+]12CCCN1CCC2
Ans: > 100 µM
